meta.source: patent US10525046B2

# system: human D2 receptors (Homo sapiens)
# Sequence (P14416 1-414 isoform P14416-2): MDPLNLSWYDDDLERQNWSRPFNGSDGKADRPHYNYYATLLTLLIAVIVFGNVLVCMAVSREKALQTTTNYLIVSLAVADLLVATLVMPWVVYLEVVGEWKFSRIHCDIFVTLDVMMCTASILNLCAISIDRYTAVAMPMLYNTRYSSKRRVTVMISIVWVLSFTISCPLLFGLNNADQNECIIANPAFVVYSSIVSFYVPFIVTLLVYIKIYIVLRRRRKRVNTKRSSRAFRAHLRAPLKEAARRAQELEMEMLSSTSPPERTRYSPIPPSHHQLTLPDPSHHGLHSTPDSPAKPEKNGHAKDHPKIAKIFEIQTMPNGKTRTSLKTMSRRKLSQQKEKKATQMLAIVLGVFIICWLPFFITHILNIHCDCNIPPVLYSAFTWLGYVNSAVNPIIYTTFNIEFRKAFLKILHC
# experiment-description: cell-based
readout-name: EC50 (nM)
Note: unit nM is implicit; provide only the numeric part.

Please fill in: EC50 reported for CC(C)C[C@H]1C(=O)N2CCC[C@H]2[C@]2(O)O[C@](NC(=O)[C@@H]3C=C4c5cccc6[nH]c(Br)c(c56)C[C@H]4N(C)C3)(C(C)C)C(=O)N12 [Bromocriptine] = 0.43
